- TARGET_DESC: T1, ROR1 naturally expressed on human tumor cell lines (A549, Jeko-1, SW620, PA-1) (human, UniProt Q01973 30-937)
- T1 construct: whole, on cells; also called cells expressing ROR1
- PROTOCOL_DESCRIPTION: FACS on PA-1 cells naturally expressing ROR1
REPORTED_PROPERTY: Top (MFI)
Unit MFI implied. Number only.

[in] // fetch Top (MFI) given entry hz137G11D10-2.1 (antibody, human IgG1, kappa, V domains shown, Humanized, human IgG1/kappa) VH: QVQLQESGPGLVKPSQTLSLTCTVSGYSITSDYAWNWIRQHPGKGLEWIGYITYSASTSYNPSLKSRVTISRDTSKNQFSLKLSSVTAADTAVYYCARGAGTYYFDYWGQGTLVTVSS VL: DIQMTQSPSSLSASVGDRVTITCITSTDIDEDMNWYQQKPGKAPKLLIYEDNSLRPGVPSRFSGSGYGTDFTLTISSLQPEDFATYYCLQTNNLPLTFGQGTKVEIKR
[out] 227000

[in] // fetch Top (MFI) given entry UC-961 (antibody, V domains shown) VH: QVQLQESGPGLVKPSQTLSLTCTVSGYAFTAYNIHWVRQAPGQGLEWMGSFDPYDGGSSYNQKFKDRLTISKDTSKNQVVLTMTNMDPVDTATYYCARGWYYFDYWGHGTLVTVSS VL: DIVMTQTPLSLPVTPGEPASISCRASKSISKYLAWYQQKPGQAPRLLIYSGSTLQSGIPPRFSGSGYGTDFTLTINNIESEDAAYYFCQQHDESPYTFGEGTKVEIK
[out] 232000

[in] // fetch Top (MFI) given entry hz137G11D10-3.1 (antibody, human IgG1, kappa, V domains shown, Humanized, human IgG1/kappa) VH: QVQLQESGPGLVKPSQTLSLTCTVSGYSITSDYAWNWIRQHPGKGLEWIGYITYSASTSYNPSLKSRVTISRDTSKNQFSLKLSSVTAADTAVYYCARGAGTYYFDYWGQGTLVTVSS VL: DIQMTQSPSSLSASVGDRVTITCITSTDIDEDMNWYQQKPGKAPKLLISEDNSLRPGVPSRFSSSGYGTDFTLTISSLQPEDFATYYCLQTNNLPLTFGQGTKVEIKR
[out] 231000

[in] // fetch Top (MFI) given entry hz137G11D10-2.2 (antibody, human IgG1, kappa, V domains shown, Humanized, human IgG1/kappa) VH: QVQLQESGPGLVKPSQTLSLTCTVSGYSITSDYAWNWIRQHPGKGLEWIGYITYSASTSYNPSLKSRVTISRDTSKNQFFLKLSSVTAADTAVYYCARGAGTYYFDYWGQGTLVTVSS VL: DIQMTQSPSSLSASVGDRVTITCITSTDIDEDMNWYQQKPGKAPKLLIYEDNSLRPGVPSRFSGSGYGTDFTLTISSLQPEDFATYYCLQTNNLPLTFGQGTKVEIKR
[out] 233000
